Protocol notes: Co-solvent addition: AOL solubility
Assay type: physicochemical
Condition info: aqueous HP-β-CD solution, aqueous with cosolvent or surfactant or cyclodextrin, thermodynamic from solid, HP-β-CD 30% (w/w), co-solvent 0% (w/w)
Measured endpoint: solubility at 4 h (µg/mL)
One number for each entry, in µg/mL.

Exercise: Return solubility at 4 h for the following compound: COc1ccc(-c2cc(=S)ss2)cc1
Key: 540

###

Protocol notes: Solubility testing in buffer containing media
Assay type: physicochemical
Condition info: buffered aqueous SBE-β-CD medium, pH 6.5, aqueous with cosolvent or surfactant or cyclodextrin, SBE-β-CD 20.0% (w/w), Phosphate 6.5 (100 μM), room temperature; read-out: AOL solubility
Measured endpoint: solubility (µg/mL)
Give bare numbers, in µg/mL.

Exercise: Let me know recorded solubility for COc1ccc(-c2cc(=S)ss2)cc1 , thanks.
Key: 382

###

Protocol notes: Co-solvent addition: AOL solubility
Format: physicochemical
Condition info: aqueous SBE-β-CD solution, aqueous with cosolvent or surfactant or cyclodextrin, thermodynamic from solid, SBE-β-CD 30% (w/w), Tween 80 20% (w/w)
Measured endpoint: solubility at 4 h (µg/mL)
Numbers only, in µg/mL.

Exercise: Query solubility at 4 h for COc1ccc(-c2cc(=S)ss2)cc1 [AOL]
Key: 1280

###

Protocol notes: Solubility testing in buffer containing media
Type: physicochemical
Condition info: aqueous SBE-β-CD medium with buffer, pH 6.5, aqueous with cosolvent or surfactant or cyclodextrin, SBE-β-CD 10.0% (w/w), Phosphate 6.5 (100 μM), room temperature; read-out: AOL solubility
Description: The solubility of AOL was tested in aqueous HP-β-CD and SBE-β-CD media at various concentrations and pH levels at room temperature. Some initial tests, where the pH of the formulations was adjusted only by addition of HCl or NaOH solutions, did evidence high variation in pH and difficulties to reach the target pH. Therefore, it was decided to prepare samples containing a buffering agent to get a stable pH and to facilitate the preparation of the formulations. […]
Measured endpoint: solubility (µg/mL)
Numbers only, in µg/mL.

Exercise: Please indicate solubility recorded for COc1ccc(-c2cc(=S)ss2)cc1
Key: 168

###

Protocol notes: Cyclodextrin-AOL solubility diagrams
Format: physicochemical
Condition info: aqueous cyclodextrin solution, 25 °C, aqueous with cosolvent or surfactant or cyclodextrin, thermodynamic from solid, HP-β-CD 10% (w/w), 25° C.; read-out: AOL solubility
Text: A cyclodextrin-AOL solubility diagram would reveal the profile of the solubility curve of the AOL depending on the concentration of the cyclodextrin. The principle of this method is to add an excess of AOL to cyclodextrin solutions of increasing concentration, then to measure the amount of solubilized AOL. […] The solubility of AOL in each test solution was quantified by HPLC as detailed in Example 2.
Measured endpoint: solubility at 4 h (µg/mL)
Give bare numbers, in µg/mL.

Exercise: Consider the molecule COc1ccc(-c2cc(=S)ss2)cc1 . State its measured solubility at 4 h.
Key: 83.9

###

Protocol notes: Cyclodextrin-AOL solubility diagrams
Assay type: physicochemical
Condition info: aqueous cyclodextrin solution, 20 °C, aqueous with cosolvent or surfactant or cyclodextrin, thermodynamic from solid, HP-β-CD 30% (w/w), 20° C.; read-out: AOL solubility
Measured endpoint: solubility at 4 h (µg/mL)
Numbers only, in µg/mL.

Exercise: For the compound COc1ccc(-c2cc(=S)ss2)cc1 , report solubility at 4 h.
Key: 243

###

Protocol notes: Cyclodextrin-AOL solubility diagrams
Format: physicochemical
Condition info: aqueous SBE-β-CD solution, 30 °C, aqueous with cosolvent or surfactant or cyclodextrin, thermodynamic from solid, SBE-β-CD 40% (w/w), 30° C.; read-out: AOL solubility
Measured endpoint: solubility at 4 h (µg/mL)
Numbers only, in µg/mL.

Exercise: Hello, please tell me recorded solubility at 4 h for this one: COc1ccc(-c2cc(=S)ss2)cc1
Key: 1040

###

Protocol notes: Cyclodextrin-AOL solubility diagrams
Format: physicochemical
Condition info: aqueous HP-β-CD solution, 4 °C, aqueous with cosolvent or surfactant or cyclodextrin, thermodynamic from solid, HP-β-CD 40% (w/w), 20° C. followed by 48 hours at 4° C.
Measured endpoint: solubility (µg/mL)
Answers are plain numbers, in µg/mL.

Exercise: Please report solubility for the following compound: COc1ccc(-c2cc(=S)ss2)cc1
Key: 270

###

Protocol notes: Co-solvent addition: AOL solubility
Format: physicochemical
Condition info: aqueous SBE-β-CD solution, aqueous with cosolvent or surfactant or cyclodextrin, thermodynamic from solid, SBE-β-CD 20% (w/w), co-solvent 0% (w/w)
Description: SBE-β-CD compatible excipients, namely polyethylene glycol and polysorbate (Tween), were evaluated for their AOL aqueous solubilizing power. Screening was carried out in same conditions as that of solubilization screening by cyclodextrins (see Example 3). Briefly, 20% (w/w) solutions of each excipient were prepared. An excess of AOL was added and the solutions were analyzed by HPLC after 4 hours of stirring. […]
Measured endpoint: solubility at 4 h (µg/mL)
One number for each entry, in µg/mL.

Exercise: Tell me its solubility at 4 h given COc1ccc(-c2cc(=S)ss2)cc1 as the entry.
Key: 375

###

Protocol notes: Cyclodextrin-AOL solubility diagrams
Type: physicochemical
Condition info: aqueous cyclodextrin solution, 30 °C, aqueous with cosolvent or surfactant or cyclodextrin, thermodynamic from solid, HP-β-CD 2.5% (w/w), 30° C.; read-out: AOL solubility
Measured endpoint: solubility at 4 h (µg/mL)
Numbers only, in µg/mL.

Exercise: Answer with reported solubility at 4 h of COc1ccc(-c2cc(=S)ss2)cc1
Key: 26.1

###

Protocol notes: Solubility testing in buffer containing media
Format: physicochemical
Condition info: buffered aqueous HP-β-CD medium, pH 5.5, aqueous with cosolvent or surfactant or cyclodextrin, HP-β-CD 20.0% (w/w), Citrate (100 μM), room temperature; read-out: AOL solubility
Method: The solubility of AOL was tested in aqueous HP-β-CD and SBE-β-CD media at various concentrations and pH levels at room temperature. Some initial tests, where the pH of the formulations was adjusted only by addition of HCl or NaOH solutions, did evidence high variation in pH and difficulties to reach the target pH. Therefore, it was decided to prepare samples containing a buffering agent to get a stable pH and to facilitate the preparation of the formulations. […]
Measured endpoint: solubility
Put your answer as a value accompanied by its unit after it.

Exercise: Retrieve solubility measured for COc1ccc(-c2cc(=S)ss2)cc1 [AOL] and print it.
Key: 212 µg/mL

###

Protocol notes: Cyclodextrin-AOL solubility diagrams
Assay type: physicochemical
Condition info: aqueous cyclodextrin solution, 30 °C, aqueous with cosolvent or surfactant or cyclodextrin, thermodynamic from solid, 30° C., 40% (w/w) HP-β-CD; read-out: highest solubility reached
Measured endpoint: solubility at 4 h (µg/mL)
Give bare numbers, in µg/mL.

Exercise: Quickly give me recorded solubility at 4 h for COc1ccc(-c2cc(=S)ss2)cc1
Key: 650

###

Protocol notes: Cyclodextrin-AOL solubility diagrams
Format: physicochemical
Condition info: aqueous HP-β-CD solution, 4 °C, aqueous with cosolvent or surfactant or cyclodextrin, thermodynamic from solid, HP-β-CD 2.5% (w/w), 20° C. followed by 48 hours at 4° C.
Measured endpoint: solubility

Exercise: Return solubility (reported value) for this compound: COc1ccc(-c2cc(=S)ss2)cc1
Key: 11.6 µg/mL

###

Protocol notes: Co-solvent addition: AOL solubility
Format: physicochemical
Condition info: aqueous HP-β-CD solution, aqueous with cosolvent or surfactant or cyclodextrin, thermodynamic from solid, HP-β-CD 20% (w/w), Cremophor 20% (w/w)
Measured endpoint: solubility at 4 h (µg/mL)
One number for each entry, in µg/mL.

Exercise: Report measured solubility at 4 h; entry is COc1ccc(-c2cc(=S)ss2)cc1
Key: 814

###

Protocol notes: Solubility testing in buffer containing media
Assay type: physicochemical
Condition info: buffered aqueous HP-β-CD medium, pH 5.5, aqueous with cosolvent or surfactant or cyclodextrin, HP-β-CD 10.0% (w/w), Citrate (100 μM), room temperature; read-out: AOL solubility
Measured endpoint: solubility (µg/mL)
One number for each entry, in µg/mL.

Exercise: Entry COc1ccc(-c2cc(=S)ss2)cc1 [AOL] needs its solubility filled in; supply it.
Key: 79

###

Protocol notes: Cyclodextrin-AOL solubility diagrams
Type: physicochemical
Condition info: aqueous SBE-β-CD solution, 25 °C, aqueous with cosolvent or surfactant or cyclodextrin, thermodynamic from solid, SBE-β-CD 5% (w/w), 25° C.; read-out: AOL solubility
Measured endpoint: solubility at 4 h (µg/mL)
Give bare numbers, in µg/mL.

Exercise: Give a short answer stating reported solubility at 4 h for COc1ccc(-c2cc(=S)ss2)cc1 .
Key: 74.9

###

Protocol notes: Cyclodextrin-AOL solubility diagrams
Type: physicochemical
Condition info: aqueous SBE-β-CD solution, 20 °C, aqueous with cosolvent or surfactant or cyclodextrin, thermodynamic from solid, SBE-β-CD 40% (w/w), 20° C.; read-out: AOL solubility
Measured endpoint: solubility at 4 h (µg/mL)
Numbers only, in µg/mL.

Exercise: Recall and state the measured solubility at 4 h for COc1ccc(-c2cc(=S)ss2)cc1 .
Key: 667

// data source = patent US20210308173A1
